These measurements were taken from the OligoGym collection.

Molecular target: YARS
Test: pooled miR-30 sensor sort-seq; sequence = guide strand; further: reference of the scale not given here
Settings: shRNA
# sensor-assay potency score (higher = more potent) annotations
Quantity name: sensor-assay potency score (higher = more potent)

[[record]]
input_sequence = "ATCTTCTCTACATACAGGCTGT"
endpoint_result = -0.695

[[record]]
input_sequence = "TACACATCTAGTGTGTACTCTT"
endpoint_result = -0.195

[[record]]
input_sequence = "TTGAATAGCCAAGTGCAGGGAG"
endpoint_result = 0.352

[[record]]
input_sequence = "TCGTAGGATCACAAACTCGGAC"
endpoint_result = -0.717

[[record]]
input_sequence = "TTCTCGAAGACTTTCTTCTTGG"
endpoint_result = -0.635

[[record]]
input_sequence = "TTTTGCTGCCTGTTAATCCTGG"
endpoint_result = -0.733


====

Biological target: PEX11G
Experiment: pooled miR-30 sensor sort-seq; sequence = guide strand
Conditions: shRNA
# sensor-assay potency score (higher = more potent) annotations
Quantity name: sensor-assay potency score (higher = more potent)

[[record]]
input_sequence = "TTCAGCAGCATCCACAGGGACC"
endpoint_result = -1.68

[[record]]
input_sequence = "TAGTGTAGACAAACATGGCCAG"
endpoint_result = -0.684

[[record]]
input_sequence = "CAGAACTCCACCAACCAGCTGG"
endpoint_result = -1.04

[[record]]
input_sequence = "AAGAGTCGCAAGATGGTCCTGC"
endpoint_result = 0.55

[[record]]
input_sequence = "TTGCTTAGTGTAGACAAACATG"
endpoint_result = -1.38

[[record]]
input_sequence = "TTTCAGCAGCATCCACAGGGAC"
endpoint_result = -0.746

[[record]]
input_sequence = "TTGGGTGGACACCACCAACAGA"
endpoint_result = -1.13

[[record]]
input_sequence = "TGGACACCACCAACAGACGTGT"
endpoint_result = -1.09

[[record]]
input_sequence = "TTAGTGTAGACAAACATGGCCA"
endpoint_result = -0.26


====

Molecular target: IL5
Assay: pooled miR-30 sensor sort-seq; sequence = guide strand
Settings: shRNA
Lab note: anything with sensor-assay potency score (higher = more potent) at or over -0.5 counts as Y; the rest go in N.

[[record]]
input_sequence = "TTTTGAATAGTCTTTCCACAGT"
measurement_target = "IL5"
assigned_label = "N"

[[record]]
input_sequence = "TCTTTCACCAATGCACTTGTGG"
measurement_target = "IL5"
assigned_label = "Y"

[[record]]
input_sequence = "TTGAATAGTCTTTCCACAGTAC"
measurement_target = "IL5"
assigned_label = "Y"

[[record]]
input_sequence = "TATTTCTTTATTAAGGACAAGT"
measurement_target = "IL5"
assigned_label = "Y"

[[record]]
input_sequence = "TTCTTTATTAAGGACAAGTTTT"
measurement_target = "IL5"
assigned_label = "N"


====

Molecular target: GPR20
Assay: pooled miR-30 sensor sort-seq; sequence = guide strand
Conditions: shRNA
Lab note: anything with sensor-assay potency score (higher = more potent) at or over -1 counts as true (1); the rest go in false (0).

[[record]]
input_sequence = "TAGATCGGTCACCACCAGGTTG"
measurement_target = "GPR20"
assigned_label = "true (1)"

[[record]]
input_sequence = "TACCAGTAGATCGGTCACCACC"
measurement_target = "GPR20"
assigned_label = "false (0)"

[[record]]
input_sequence = "TTGATGGTGTAGATGACTGAGG"
measurement_target = "GPR20"
assigned_label = "false (0)"

[[record]]
input_sequence = "ATGGTGTAGATGACTGAGGGTG"
measurement_target = "GPR20"
assigned_label = "false (0)"

[[record]]
input_sequence = "TGCATGTTGAGGAAGTAACCGA"
measurement_target = "GPR20"
assigned_label = "true (1)"

[[record]]
input_sequence = "AAACACGCTGATGACCAGCAGG"
measurement_target = "GPR20"
assigned_label = "false (0)"

[[record]]
input_sequence = "TAGACGATGGGGTCCATGCAGC"
measurement_target = "GPR20"
assigned_label = "true (1)"

[[record]]
input_sequence = "TAGTACACAGCGAAGCGCGTGG"
measurement_target = "GPR20"
assigned_label = "true (1)"

